Reference source for all entries: paper PMC10059999

assay: RP-TLC determination of chromatographic lipophilicity parameter RMW (Soczewiński–Wachtmeister extrapolation to pure water); format: physicochemical; conditions: RP18WF254 plates, acetonitrile-water mobile phase
Listing of recorded RMW by entry.
Give the figure by itself; no unit, no explanation.

| Structure Smiles | RMW |
| --- | --- |
| CC(C)(O/N=C(\C(=O)N[C@@H]1C(=O)N2C(C(=O)[O-])=C(C[n+]3ccccc3)CS[C@H]12)c1csc(N)n1)C(=O)O | 0.4121 |
| CO[C@H]1C[C@@H]2CC[C@@H](C)[C@@](O)(O2)C(=O)C(=O)N2CCCC[C@H]2C(=O)O[C@H]([C@H](C)C[C@@H]2CC[C@@H](OCCO)[C@H](OC)C2)CC(=O)[C@H](C)/C=C(\C)[C@@H](O)[C@@H](OC)C(=O)[C@H](C)C[C@H](C)/C=C/C=C/C=C/1C | 2.7737 |
| CO[C@H]1C[C@@H]2CC[C@@H](C)[C@@](O)(O2)C(=O)C(=O)N2CCCC[C@H]2C(=O)O[C@H]([C@H](C)C[C@@H]2CC[C@H](n3cnnn3)[C@H](OC)C2)CC(=O)[C@H](C)/C=C(\C)[C@@H](O)[C@@H](OC)C(=O)[C@H](C)C[C@H](C)/C=C/C=C/C=C/1C | 3.2300 |
| Nc1nc(-n2cc(C(=O)O)c(=O)c3cc(F)c(N4CC(O)C4)c(Cl)c32)c(F)cc1F | 1.8351 |

Task item: Quick one: give measured RMW for CC(=O)NC[C@H]1CN(c2ccc(N3CCSCC3)c(F)c2)C(=O)O1
Reply: 2.0329

----------
Listing of recorded RMW by entry.
test: RP-TLC determination of chromatographic lipophilicity parameter RMW (Soczewiński–Wachtmeister extrapolation to pure water); format: physicochemical; conditions: RP18WF254 plates, ethanol–water mobile phase
Give the figure by itself; no unit, no explanation.

| Structure Smiles | RMW |
| --- | --- |
| CO[C@H]1C[C@@H]2CC[C@@H](C)[C@@](O)(O2)C(=O)C(=O)N2CCCC[C@H]2C(=O)O[C@H]([C@H](C)C[C@@H]2CC[C@H](n3cnnn3)[C@H](OC)C2)CC(=O)[C@H](C)/C=C(\C)[C@@H](O)[C@@H](OC)C(=O)[C@H](C)C[C@H](C)/C=C/C=C/C=C/1C | 2.7377 |
| Nc1nc(-n2cc(C(=O)O)c(=O)c3cc(F)c(N4CC(O)C4)c(Cl)c32)c(F)cc1F | 1.9694 |
| CC(C)(O/N=C(\C(=O)N[C@@H]1C(=O)N2C(C(=O)[O-])=C(C[n+]3ccccc3)CS[C@H]12)c1csc(N)n1)C(=O)O | 0.4152 |
| CO[C@H]1C[C@@H]2CC[C@@H](C)[C@@](O)(O2)C(=O)C(=O)N2CCCC[C@H]2C(=O)O[C@H]([C@H](C)C[C@@H]2CC[C@@H](OCCO)[C@H](OC)C2)CC(=O)[C@H](C)/C=C(\C)[C@@H](O)[C@@H](OC)C(=O)[C@H](C)C[C@H](C)/C=C/C=C/C=C/1C | 2.8227 |

Now for a further compound.
Task item: Quick one: give measured RMW for CC(=O)NC[C@H]1CN(c2ccc(N3CCSCC3)c(F)c2)C(=O)O1
Reply: 1.9661
